DETAILS: T = 298 K, I = 0.1 M (KCl); charges omitted
Residues, ends and D or L forms follow the SMILES beside them.
EXPERIMENTAL READOUT: logβ [CuL]

Query (compound): CC[C@H](C)[C@H](NC(=O)[C@H](C)NC(=O)[C@@H](N)C(C)C)C(=O)N[C@@H](C)C(=O)N[C@@H](CC(C)C)C(=O)N[C@@H](CCCCN)C(=O)N[C@@H](C)C(=O)N[C@@H](C)C(=O)N[C@@H](Cc1c[nH]cn1)C(=O)N[C@@H](Cc1ccc(O)cc1)C(=O)N[C@@H](Cc1c[nH]cn1)C(=O)N[C@H](C(=O)N[C@@H](Cc1c[nH]cn1)C(=O)N[C@@H](CCCCN)C(=O)N[C@@H](CCC(=O)O)C(=O)O)[C@@H](C)O [WT, VAIALKAAHYHTHKE, reference compound] (H-VAIALKAAHYHTHKE-OH) ; field requested: logβ [CuL] 16.83(5)
